target: T1, soluble human EREG fragment having a mature EGF domain structure (R&D Systems cat. no. 1195-EP/CF) (human, UniProt O14944 63-108); assay: competitive ELISA on coated soluble human EREG fragment
T1 construct: bought; coated on ELISA plates; also called human epiregulin; recombinant human Epiregulin
T1 sequence (O14944 63-108 limits assumed): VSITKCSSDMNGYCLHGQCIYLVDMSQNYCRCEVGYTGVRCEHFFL
observed property: binding result

HY-G1d/L2-k (antibody, human IgG1, kappa, V domains shown) VH: QDQLVQSGAEVKKPGASVKVSCKASGFNIKDTYIQWVRQAPGQGLEWMGRIDPLNGNTKYVPKFQGRVTITADTSTNTAYMELSSLRSEDTAVYYCVRSGTLFDFWGQGTLVTVSS VL: DIQMTQSPSSLSASVGDRVTITCSASQDIHKYIAWYQQKPGQAPRLLIQYTSTLQPGVPSRFSGSGSGTDYTFTISSLQPEDIATYYCLQYDNLRTFGGGTKVEIKR :: binds
H40-G1d/LB-k (antibody, human IgG1, kappa, V domains shown, also called H40-G1/LB-k) VH: QDQLVQSGAEVKKPGASVKVSCKASGFNIKDTYIQWVRQAPGQGLEWMGRIDPLNGQTKYVPKFQGRVTITADTSTNTAYMELSSLRSEDTAVYYCVRSGTLFDFWGQGTLVTVSS VL: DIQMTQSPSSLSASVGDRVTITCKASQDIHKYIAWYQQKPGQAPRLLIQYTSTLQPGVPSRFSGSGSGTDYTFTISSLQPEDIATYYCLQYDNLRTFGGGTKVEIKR :: binds
H6-G1d/LB-k (antibody, human IgG1, kappa, V domains shown) VH: QDQLVQSGAEVKKPGASVKVSCKASGFNIKDTYIQWVRQAPGQGLEWMGRIDPLNGNTKYVPQFQGRVTITADTSTNTAYMELSSLRSEDTAVYYCVRSGTLFDFWGQGTLVTVSS VL: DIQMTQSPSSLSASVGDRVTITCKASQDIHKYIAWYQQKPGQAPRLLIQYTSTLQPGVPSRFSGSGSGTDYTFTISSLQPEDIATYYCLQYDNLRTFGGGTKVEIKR :: binds
